- runDescription: self-splicing fitness, log relative to wild type (ln ratio); higher = more splicing; Tetrahymena group I intron in knt gene, E. coli kanamycin selection, DiMSum; sequences stand for … in CUCUCU…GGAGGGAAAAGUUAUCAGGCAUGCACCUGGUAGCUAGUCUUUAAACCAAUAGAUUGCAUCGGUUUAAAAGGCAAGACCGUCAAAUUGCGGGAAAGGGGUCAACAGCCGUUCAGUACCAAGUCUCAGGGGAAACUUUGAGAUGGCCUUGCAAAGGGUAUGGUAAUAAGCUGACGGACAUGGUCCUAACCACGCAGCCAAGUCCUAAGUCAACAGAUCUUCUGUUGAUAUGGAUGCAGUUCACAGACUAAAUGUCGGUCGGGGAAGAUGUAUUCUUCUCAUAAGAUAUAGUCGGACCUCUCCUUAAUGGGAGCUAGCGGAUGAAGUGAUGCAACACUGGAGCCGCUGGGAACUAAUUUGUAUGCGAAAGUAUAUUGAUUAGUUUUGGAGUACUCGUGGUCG;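 further: selection with 25 µg/mL kanamycin versus none on LB agar overnight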
- measurementParameters: 37 °C
# reported self-splicing fitness (ln); entries follow

# residues, self-splicing fitness (ln)
records = [
    ("UGUGAGCAAUAUUACGAAAA", -1.31),
    ("GGAUAGCAAUAUUACGGAGC", -2.51),
    ("GGAAAGCAAUAUUACGAGAC", -1.96),
    ("GACCAGCAAUAUUACGAGUU", -1.5),
    ("GUUGAGCAAUAUUACGUCUG", -2.04),
    ("UACUAGCAAUAUUACGGCUC", -0.765),
    ("AUGCAGCAAUAUUACGUUGC", -2.25),
    ("GAGUAGCAAUAUUACGUUUU", -2.12),
    ("CACAAGCAAUAUUACGAGCA", -2.28),
    ("CACGAGCAAUAUUACGGUUC", -1.98),
    ("GCUCAGCAAUAUUACGCAAG", -1.69),
    ("GACGAGCAAUAUUACGGCGA", -1.65),
    ("CGCAAGCAAUAUUACGAAUG", -0.303),
    ("CCCUAGCAAUAUUACGACAA", -2.1),
    ("CGUAAGCAAUAUUACGUAGG", -0.149),
    ("GAGCAGCAAUAUUACGGUAA", -0.00417),
    ("CAAAAGCAAUAUUACGAGGA", -2.14),
    ("UAGGAGCAAUAUUACGACGG", -0.471),
    ("UGAUAGCAAUAUUACGUACC", -1.6),
    ("CCGGAGCAAUAUUACGAAGC", -2.8),
    ("GGUUAGCAAUAUUACGUUGU", -1.71),
    ("UAGCAGCAAUAUUACGUCCG", 0.357),
    ("GGCAAGCAAUAUUACGAACA", -0.92),
    ("UUGUAGCAAUAUUACGAAAC", -2.66),
    ("ACUGAGCAAUAUUACGAGUG", -2.76),
]

###

- runDescription: self-splicing fitness, log relative to wild type (ln ratio); higher = more splicing; Tetrahymena group I intron in knt gene, E. coli kanamycin selection, DiMSum; sequences stand for … in CUCUCU…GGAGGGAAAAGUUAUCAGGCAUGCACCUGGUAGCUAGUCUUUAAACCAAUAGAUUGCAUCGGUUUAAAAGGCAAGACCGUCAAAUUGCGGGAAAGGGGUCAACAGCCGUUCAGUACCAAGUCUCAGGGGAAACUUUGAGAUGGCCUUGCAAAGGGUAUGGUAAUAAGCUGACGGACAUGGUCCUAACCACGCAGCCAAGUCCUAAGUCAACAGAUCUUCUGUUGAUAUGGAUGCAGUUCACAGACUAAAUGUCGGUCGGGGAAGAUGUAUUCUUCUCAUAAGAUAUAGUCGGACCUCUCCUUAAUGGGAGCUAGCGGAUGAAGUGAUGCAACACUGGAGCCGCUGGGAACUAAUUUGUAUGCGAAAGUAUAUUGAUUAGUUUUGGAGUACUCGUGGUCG
- measurementParameters: 30 °C
observationType: self-splicing fitness (ln)

# residues, observationType, measValue
rows = [
    ("GCGCAGCAAUAUUACGUUGC", "self-splicing fitness (ln)", -2.95),
    ("CUUAAGCAAUAUUACGUGCA", "self-splicing fitness (ln)", -2.91),
    ("CUCAAGCAAUAUUACGCGCA", "self-splicing fitness (ln)", -2.95),
    ("UCAUAGCAAUAUUACGCUCC", "self-splicing fitness (ln)", -2.92),
]
